Target chain: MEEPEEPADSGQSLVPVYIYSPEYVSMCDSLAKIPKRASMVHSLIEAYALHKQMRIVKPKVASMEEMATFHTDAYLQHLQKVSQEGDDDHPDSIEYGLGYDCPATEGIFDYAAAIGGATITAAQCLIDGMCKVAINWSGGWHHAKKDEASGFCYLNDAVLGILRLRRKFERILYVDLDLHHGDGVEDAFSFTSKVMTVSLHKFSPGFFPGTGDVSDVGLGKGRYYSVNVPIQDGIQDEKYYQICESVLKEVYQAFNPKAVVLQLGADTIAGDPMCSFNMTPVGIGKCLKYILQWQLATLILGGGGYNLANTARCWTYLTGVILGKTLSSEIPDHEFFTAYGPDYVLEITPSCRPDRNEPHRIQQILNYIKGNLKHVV
pIC50: −log10 of the molar value.
property-measured: pIC50

molecule | pIC50
CCC(=O)CCCCC[C@H](NC(=O)[C@@H]1CCC12CCN(CC)CC2)c1ncc(-c2cc3ccccc3nc2OC)[nH]1 | 5.63
CCC(=O)CCCCC[C@H](NC(=O)[C@H]1CC12CCN(CC)CC2)c1nnc(-c2cc3ccccc3nc2OC)[nH]1 | 5.52

P: CCC(=O)CCCCC[C@H](NC(=O)[C@H]1CC12CCN(C(C)=O)CC2)c1ncc(-c2cc3ccccc3nc2OC)[nH]1
Q: CCC(=O)CCCCC[C@H](NC(=O)[C@H]1CC12CCC(N(C)C)CC2)c1ncc(-c2cc3ccccc3nc2OC)[nH]1 (stereo not given in full)
R: CCC(=O)CCCCC[C@H](NC(=O)[C@@H]1CC12CCC(N(C)C)CC2)c1ncc(-c2cc3ccccc3nc2OC)[nH]1 (stereo not given in full)
Rank the 3 molecules: largest pIC50 first, smallest last. Would you mind listing the labels in the order asked for?
Q, P, R
(Q: 7.12, P: 5.64, R: 5.25)

###

- target-system: Histone deacetylase 1 (Homo sapiens, UniProt Q13547)
- Sequence (Q13547 whole entry): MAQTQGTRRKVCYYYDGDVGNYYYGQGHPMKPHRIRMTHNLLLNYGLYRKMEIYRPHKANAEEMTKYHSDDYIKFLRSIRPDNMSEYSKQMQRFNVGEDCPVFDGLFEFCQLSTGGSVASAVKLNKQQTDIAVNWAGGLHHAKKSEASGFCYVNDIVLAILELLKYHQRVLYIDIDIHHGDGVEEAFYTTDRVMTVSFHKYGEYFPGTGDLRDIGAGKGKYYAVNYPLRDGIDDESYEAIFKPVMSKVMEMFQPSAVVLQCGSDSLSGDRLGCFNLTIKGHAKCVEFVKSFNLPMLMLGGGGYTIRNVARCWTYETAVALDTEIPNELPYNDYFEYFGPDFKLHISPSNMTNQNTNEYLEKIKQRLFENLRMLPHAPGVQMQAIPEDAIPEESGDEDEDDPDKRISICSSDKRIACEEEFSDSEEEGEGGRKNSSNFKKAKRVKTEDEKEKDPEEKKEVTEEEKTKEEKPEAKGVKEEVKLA
pIC50: −log10 of the molar value.
property-measured: pIC50

a: CCC(=O)CCCCC[C@H](NC(=O)[C@H]1CC12CCN(C)CC2)c1ncc(-c2cc3ccccc3nc2OC)o1
b: CCC(=O)CCCCC[C@H](NC(=O)[C@H]1CC12CCN(C(C)C)CC2)c1ncc(-c2cc3ccccc3nc2OC)o1
In the pair a and b , the larger recorded pIC50 belongs to which? Which one? Tell me its label.
a
(a: 8.82, b: 8.46)

###

- assay-comment: AUC in Wistar Han rat at 10 mg/kg, po
- Format: ADME, organism-based
- applied-conditions: in vivo
property-measured: AUC (µM·h)

molecule | AUC, µM·h
CCC(=O)CCCCC[C@H](NC(=O)[C@H]1CC12CCN(CC)CC2)c1ncc(-c2cc3ccccc3nc2OC)o1 | 14

P: CCC(=O)CCCCC[C@H](NC(=O)[C@H]1CC12CCN(C)CC2)c1ncc(-c2cc3ccccc3nc2OC)o1
Q: CCC(=O)CCCCC[C@H](NC(=O)[C@H]1CC12CCN(C)CC2)c1ncc(-c2cc3ccccc3nc2OC)[nH]1
Field: lower recorded AUC (choose P or Q ) Which one? Tell me its label.
Q
(Q: 2.1 µM·h, P: 6.77 µM·h)

###

Measurement record for Histone deacetylase 2 (Homo sapiens, UniProt Q92769); quantity recorded: IC50.
property-measured: IC50 (nM)

molecule | readout-number
CCC(=O)CCCCC[C@H](NC(=O)[C@H]1CC12CCN(C)CC2)c1ncc(-c2cc3ccccc3nc2OC)o1 | 4.7
CCC(=O)CCCCC[C@H](NC(=O)C1=NOC2(CCN(C)CC2)C1)c1ncc(-c2cc3ccccc3nc2OC)[nH]1 | 5.2
